# credit: patent US20240018252A1

molecular target: human CD3 (huCD3ed) (human) (UniProt P07766); assay: Biacore SPR, bispecific hIgG2dA format, 37 C; CD3 antigen not given
Sequence (P07766 23-126, chain 1 of 2): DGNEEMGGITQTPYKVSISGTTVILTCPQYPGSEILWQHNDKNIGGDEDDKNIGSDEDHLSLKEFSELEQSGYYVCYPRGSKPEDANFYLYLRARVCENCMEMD
Sequence (P04234 22-105, chain 2 of 2, further chain): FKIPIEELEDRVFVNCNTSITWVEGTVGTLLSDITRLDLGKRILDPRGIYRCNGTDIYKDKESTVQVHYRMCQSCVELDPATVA
# kon values compiled below
quantity-name: kon (M⁻¹ s⁻¹)

binder: h2B4-hnpsTK_Ep (bispecific antibody, part only; not given: anti-EpCam arm, constant regions, V domains shown, not shown: another chain or arm of the molecule; a dimerising Fc or GST; small tags and cut ends) VH: EVQLVESGGGLVQPGGSLRLSCAASGFTFSDYYMTWVRQAPGKGLEWVAFIRNRARGYTSDHNPSVKGRFTISRDNAKNSLYLQMNSLRAEDTAVYYCARDRPSYYVLDYWGQGTTVTVSS VL: DIVMTQSPDSLAVSLGERATINCKSSQSLFNVRSRKNYLAWYQQKPGQPPKLLISWASTRESGVPDRFSGSGSGTDFTLTISSLQAEDVAVYYCKQSYDLFTFGSGTKLEIK
quantity-name: kon
experimental-value: 754000
//
binder: h25A8-B12_Ep (bispecific antibody, part only; not given: anti-EpCam arm, constant regions, V domains shown, not shown: another chain or arm of the molecule; a dimerising Fc or GST; small tags and cut ends) VH: EVQLVESGGGLVKPGGSLRLSCAASGFTFSTYAMNWVRQAPGKGLEWVGRIRSKINNYATYYAESVKGRFTISRDDSKNTLYLQMNSLKTEDTAVYYCVRHETLRSGISWFASWGQGTLVTVSS VL: QAVVTQEPSLTVSPGGTVTLTCRASTGAVTTSNYANWVQQKPGQAPRGLIGGTNTRAPGTPARFSGSLLGGKAALTLSGAQPEDEAEYYCVLWYNNHWVFGGGTKLTVL
quantity-name: kon
experimental-value: 1.15e+06
//
binder: h25A8-B5_Ep (bispecific antibody, part only; not given: anti-EpCam arm, constant regions, V domains shown, not shown: another chain or arm of the molecule; a dimerising Fc or GST; small tags and cut ends) VH: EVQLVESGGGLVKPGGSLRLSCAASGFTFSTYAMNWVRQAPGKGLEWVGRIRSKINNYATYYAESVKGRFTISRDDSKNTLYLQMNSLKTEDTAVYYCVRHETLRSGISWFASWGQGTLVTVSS VL: QAVVTQEPSLTVSPGGTVTLTCRSSTGAVTTSNYANWVQQKPGQAPRGLIGGTNTRAPGTPARFSGSLLGGKAALTLSGAQPEDEAEYYCVLWYNNYWVFGGGTKLTVL
quantity-name: kon
experimental-value: 1.29e+06
